# Test Method Notes: Phase 1 four-period crossover study of relative bioavailability and food effect, Compound 1 Capsules vs Oral Solution, plasma PK
# Format: in vivo, human
# Experimental Conditions: human, plasma, po, 30 mg, single 30 mg oral dose, Capsules, fed [standard meal], healthy subjects, plasma; read-out: t1/2, median (converted)
Experimental Readout: half-life (h)
Numbers only, in h.

half-life recorded for this compound, C[C@@]1(O)CC[C@H]2[C@H](CC[C@@H]3[C@@H]2CC[C@]2(C)[C@@H](C(=O)Cn4cc(C#N)cn4)CC[C@@H]32)C1 , is 15.8

###

# Test Method Notes: Phase 1 four-period crossover study of relative bioavailability and food effect, Compound 1 Capsules vs Oral Solution, plasma PK
# Type: in vivo, human
# Experimental Conditions: human, plasma, po, 30 mg, single 30 mg oral dose, Capsules, fed [high-fat meal], healthy subjects, plasma; read-out: AUC0-t, geometric mean
Experimental Readout: AUC(0-t) (ng·h/mL)
One number for each entry, in ng·h/mL.

AUC(0-t) recorded for this compound, C[C@@]1(O)CC[C@H]2[C@H](CC[C@@H]3[C@@H]2CC[C@]2(C)[C@@H](C(=O)Cn4cc(C#N)cn4)CC[C@@H]32)C1 [Compound 1] , is 834

###

# Test Method Notes: Phase 2 open-label study (Part A): plasma pharmacokinetics
# Assay type: in vivo, human
# Experimental Conditions: human, plasma; Day 7, steady state; 30 mg oral solution once daily with food; N=13; read-out: AUCinf, geometric mean
Experimental Readout: AUC(0-inf) (ng·h/mL)
Numbers only, in ng·h/mL.

AUC(0-inf) recorded for this compound, C[C@@]1(O)CC[C@H]2[C@H](CC[C@@H]3[C@@H]2CC[C@]2(C)[C@@H](C(=O)Cn4cc(C#N)cn4)CC[C@@H]32)C1 , is 1150

###

# Test Method Notes: Phase 1 four-period crossover study of relative bioavailability and food effect, Compound 1 Capsules vs Oral Solution, plasma PK
# Format: in vivo, human
# Experimental Conditions: human, plasma, po, 30 mg, single 30 mg oral dose, Capsules, fed [standard meal], healthy subjects, plasma; read-out: AUC0-t, median
Experimental Readout: AUC(0-t)

AUC(0-t) recorded for this compound, C[C@@]1(O)CC[C@H]2[C@H](CC[C@@H]3[C@@H]2CC[C@]2(C)[C@@H](C(=O)Cn4cc(C#N)cn4)CC[C@@H]32)C1 , is 881 ng·h/mL

###

# Test Method Notes: Phase 1 four-period crossover study of relative bioavailability and food effect, Compound 1 Capsules vs Oral Solution, plasma PK
# Type: in vivo, human
# Experimental Conditions: human, plasma, po, 30 mg, single 30 mg oral dose, Capsules, fed [high-fat meal], healthy subjects, plasma; read-out: AUC0-t, arithmetic mean
Experimental Readout: AUC(0-t) (ng·h/mL)
One number for each entry, in ng·h/mL.

AUC(0-t) recorded for this compound, C[C@@]1(O)CC[C@H]2[C@H](CC[C@@H]3[C@@H]2CC[C@]2(C)[C@@H](C(=O)Cn4cc(C#N)cn4)CC[C@@H]32)C1 , is 846

###

# Test Method Notes: Phase 1 four-period crossover study of relative bioavailability and food effect, Compound 1 Capsules vs Oral Solution, plasma PK
# Assay type: in vivo, human
# Experimental Conditions: human, plasma, po, 30 mg, single 30 mg oral dose, Capsules, fed [standard meal], healthy subjects, plasma; read-out: Cmax, median
Experimental Readout: Cmax (ng/mL)
Answers are plain numbers, in ng/mL.

Cmax recorded for this molecule, C[C@@]1(O)CC[C@H]2[C@H](CC[C@@H]3[C@@H]2CC[C@]2(C)[C@@H](C(=O)Cn4cc(C#N)cn4)CC[C@@H]32)C1 [Compound 1] , is 63.2
